MEASURED_ON: IL16_1, Q14005
Sequence (Q14005 210-306): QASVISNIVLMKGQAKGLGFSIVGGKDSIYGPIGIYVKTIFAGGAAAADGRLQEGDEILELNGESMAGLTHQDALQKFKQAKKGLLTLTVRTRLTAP
PROTOCOL_SUMMARY: holdup assay
Design: key: below the threshold = too weak to quantify, mostly under pKd 3.1 to 4
TEST_PARAMETERS: plain residues with an end cap or a label only (N-terminal biotin on a linker: ttds)
VALUE_KIND: pKd

{"BINDER": "SGSRPSATVV [HPV73-E6, Q82005]", "MEASURED": "below the threshold"}
{"BINDER": "RLPKIKETTV [FRMPD4, Q14CM0]", "MEASURED": 4.07}
{"BINDER": "KKYVDAETSL [SLC4A7, Q9Y6M7]", "MEASURED": "below the threshold"}
{"BINDER": "RPLPRKVSQL [DOCK4, Q8N1I0]", "MEASURED": "below the threshold"}
{"BINDER": "RHTTSTETAV [HPV30-E6, P36809]", "MEASURED": 4.08}
{"BINDER": "SSLQSLETSV [ATP2B4, P23634]", "MEASURED": 4.7}
{"BINDER": "SKPTRRETEV [HPV35-E6, P27228]", "MEASURED": "below the threshold"}
{"BINDER": "PVRVCEETSL [OTULIN, Q96BN8]", "MEASURED": 3.53}
{"BINDER": "RLQRRRETQV [HPV18-E6, P06463]", "MEASURED": "below the threshold"}
{"BINDER": "EVVHTPETSV [SLC16A3, O15427]", "MEASURED": 3.6}
{"BINDER": "FHPLGADSQV [SLC2A1, P11166]", "MEASURED": 3.51}
{"BINDER": "VDFPPKESSL [ACVR2A, P27037]", "MEASURED": "below the threshold"}
{"BINDER": "DKDPHSETAL [TMIGD1, Q6UXZ0]", "MEASURED": "below the threshold"}
{"BINDER": "PRVKPQRSKV [PPP1R13L, Q8WUF5]", "MEASURED": "below the threshold"}
{"BINDER": "QRQARSETLV [HPV59-E6, Q81964]", "MEASURED": "below the threshold"}
{"BINDER": "EMDRRPATVV [PLCB4, Q15147]", "MEASURED": "below the threshold"}
{"BINDER": "NDPAWDETNL [ARHGEF7, Q14155;Q14155-1]", "MEASURED": "below the threshold"}
